- system: 肝癌Huh-7细胞 (Huh-7癌细胞抗原; Huh-7细胞裂解蛋白)
- testSummary: SPR, BIAcore T-200, 1:1 Langmuir model; binding to liver cancer Huh-7 cells

# binder, Kd [nM]
records = [
    ("4D6单克隆抗体 (antibody, V domains shown) VH: EVKLVESGGGLVKPGGSLKLSCAASGFTFSQYRMGWVRQIPEKRLEWVAEISSASSLYFPDSVKSRFTISRDNARNICYLQMNSLRSDDTAMYYCARAREADNVYFDAWGQGTTLTVSS VL: DIVLTQSPASLAVSLGQRATISCSQSESGTYYGTSLAMWYQQKPGQPPKLLIYAASNVESGVPARFSGSGSGTDFSLNIHPVEEDDIAMYFCTASMKAPLRFGAGTKLELK", 0.31),
]
